Hey, just so you know, these numbers are from paper PMC8518411.

TARGET_SYSTEM: GPR183 (Homo sapiens, UniProt P32249)
Sequence (P32249 whole entry): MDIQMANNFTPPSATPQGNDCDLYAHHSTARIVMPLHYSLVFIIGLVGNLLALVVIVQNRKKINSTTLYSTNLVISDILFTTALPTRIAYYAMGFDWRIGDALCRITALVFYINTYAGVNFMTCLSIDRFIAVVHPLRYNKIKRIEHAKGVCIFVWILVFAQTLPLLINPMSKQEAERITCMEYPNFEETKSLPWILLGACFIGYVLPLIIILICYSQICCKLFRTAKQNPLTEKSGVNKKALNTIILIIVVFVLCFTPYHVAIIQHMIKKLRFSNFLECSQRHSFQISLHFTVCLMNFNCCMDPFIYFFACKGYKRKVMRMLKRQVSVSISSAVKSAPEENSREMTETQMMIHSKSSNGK
ASSAY_OVERVIEW: cell-based
MEASUREMENT_SETUP: pEC50±SE, Gαi coupling, BRET
OBSERVED_PROPERTY: pEC50
In plain terms, pEC50 is the concentration in mol/L turned into minus its base-10 logarithm.

Cc1cc(Cl)ccc1OCC(=O)N1CCN(C(=O)c2ccccc2)CC1; 7.20

Notebook: COc1cc(C(=O)N2CCN(C(=O)COc3ccc(Cl)cc3C)CC2)ccc1C , pEC50 read as 7.30

---

TARGET_SYSTEM: UniProt P32249
Type: cell-based
Design: hemagglutinin signal peptide (upstream of the FLAG tag) (N); expressed in transfected cells; host or cells: CHO-K1 (ATCC CCL-61), transient lipofection, modified pcDNA3 vector
MEASUREMENT_SETUP: calcium assay dose-response; mean of 3 experiments in duplicates; read-out: EC50 (potency)
OBSERVED_PROPERTY: EC50 (µM)
# output: bare number, implied unit µM

In the examples that follow, each entry is paired with its recorded EC50.
O=C(COc1cccc2ccccc12)N1CCN(C(=O)c2ccccc2)CC1; 0.209
O=C(/C=C/c1cccs1)N1CCN(C(=O)c2cccc3ccccc23)CC1; 0.086
Cc1nn(C)c(C)c1/C=C/C(=O)N1CCN(C(=O)C2COc3ccccc3O2)CC1 (centres unmarked); 0.634
O=C(CCC1CCCC1)N1CCN(C(=O)c2cc(=O)c3ccccc3o2)CC1; 0.165
O=C(COc1ccc(F)cc1Cl)N1CCN(C(=O)c2cccs2)CC1; 0.74
O=C(/C=C/c1ccccc1Br)N1CCN(C(=O)Cc2ccc(F)cc2)CC1; 0.107
O=C(COc1ccc(F)cc1Br)N1CCN(C(=O)C2COc3ccccc3O2)CC1 (centres unmarked); 0.278

# EC50 of COc1cc(C(=O)N2CCN(C(=O)COc3ccc(Cl)cc3C)CC2)ccc1C = 0.179
